B1: HDV Ribozyme (parent)
chain: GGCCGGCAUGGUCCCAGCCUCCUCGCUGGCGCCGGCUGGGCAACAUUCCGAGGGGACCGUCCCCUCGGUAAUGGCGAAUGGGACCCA

Variants of: B1
protocolNotes: self-cleavage, relative activity (ratio to wild type); higher = more cleavage; co-transcriptional
Listed variants paired with reported self-cleavage

Some entries whose results are on file:
| sequenceText | assayValue |
| --- | --- |
| GGCCGGCAUGGUCCCAGCCUCCUCGCUGGCGCCGGCUGGGCAACAUUCCGAGGGGACCGUCCCCUCGGUAAUGGCGAAUGGGACCUU [C86U A87U] | 0.835 |
| GGCCGGCAUGGUCCCAGCCUCCUCGCUGGCGCCGGCUGGGGAACAUUCCGAGGGGACCGUCCCCUCGGUAAUGGCGAAUGGGACGCA [C41G C85G] | 0.429 |
| GGCCGGCAUGGUCCCAGCCUCCUCGCUGGCGCCGGCUGGGCAACGUUCCGAGGGGACCGUCCCCUCGAUAAUGGCGAAUGGGACCCA [A45G G68A] | 0.867 |
| GGCCGGCAUGGUCCCAGCCUCCUCGCGGGCGCCGGCUGGGCAACAUUCCGAGGGGACCGUCCCCUCGGUCAUGGCGAAUGGGACCCA [U27G A70C] | 0.554 |
| GGCCGGCAUGGUCCCAGCCUCCACGCUGGCGCCGACUGGGCAACAUUCCGAGGGGACCGUCCCCUCGGUAAUGGCGAAUGGGACCCA [U23A G35A] | 0.864 |
| GGCCGGCAUGGUCCCAGCCUCCUCGCUGGCGCCGGCUGGGCAACAUUCCGAGGGGACCGUCCCUUCGGUAAUGGCGAAUGGGACCCC [C64U A87C] | 0.971 |

input: self-cleavage for GGCCGGCAUGGUCCCAGCCUCCUCGCUGGCGCCAGCUGGGCAACAUUCCGAGGGGACCGUCCCCUCGGUAUUGGCGAAUGGGACCCA [G34A A71U] ?
output: 0.185

input: self-cleavage for GGCCGGCAUGGCCCCAGCCUCCUCGCUGGCGCCGGCUGGGCAACAUUCAGAGGGGACCGUCCCCUCGGUAAUGGCGAAUGGGACCCA [U12C C49A] ?
output: 0.322

input: self-cleavage for GGCCGGGAUGGUCCCAGCCUCCUCGCUGGCGCCGGCUAGGCAACAUUCCGAGGGGACCGUCCCCUCGGUAAUGGCGAAUGGGACCCA [C7G G38A] ?
output: 0.101
